Tested on: strains of Propionibacterium acnes
Assay: MIC against anaerobes, agar dilution (CLSI), clinical isolates
Type: cell-based
Study conditions: Cutibacterium acnes, Propionibacterium acnes strain 3
Property: MIC; scope: individual compounds
Measured metric: MIC

compound=COc1ccc2ncc(=O)n(CCN[C@@H]3CC[C@@H]4[C@@H](C3)OC(=O)N4c3ccc4c(n3)NC(=O)CO4)c2c1 experimental_result="< 1 µg/mL"
compound="CN[C@H](CC(C)C)C(=O)N[C@H]1C(=O)N[C@@H](CC(N)=O)C(=O)N[C@H]2C(=O)N[C@H]3C(=O)N[C@H](C(=O)N[C@H](C(=O)O)c4cc(O)cc(O)c4-c4cc3ccc4O)[C@H](O)c3ccc(c(Cl)c3)Oc3cc2cc(c3O[C@@H]2O[C@H](CO)[C@@H](O)[C@H](O)[C@H]2O[C@H]2C[C@](C)(N)[C@H](O)[C@H](C)O2)Oc2ccc(cc2Cl)[C@H]1O [VAN, vancomycin, reference compound]" experimental_result="< 1 µg/mL"
compound=Cc1ccc2ncc(=O)n(CCN[C@H]3CC[C@H]4[C@@H](C3)OC(=O)N4c3ccc4c(n3)NC(=O)CO4)c2c1 experimental_result="< 1 µg/mL"
compound="Cc1ncc([N+](=O)[O-])n1CCO [MTZ, metronidazole, reference compound]" experimental_result="16 to 64 µg/mL"
